src = the RNAGym collection of RNA variant scans (doi:10.7554/elife.80360)

B1: HDV Ribozyme (parent)
chain: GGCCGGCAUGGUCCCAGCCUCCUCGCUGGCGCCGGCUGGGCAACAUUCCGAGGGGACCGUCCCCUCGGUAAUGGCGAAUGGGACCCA

variants of: B1; assay: self-cleavage, relative activity (ratio to wild type); higher = more cleavage; co-transcriptional
RESULT_TYPE: self-cleavage

INSERT INTO results (monomer_sequence, result_type, test_value) VALUES
  ('GGCCGGCAUGGUCCCAGCCUCCUCGCUGGCGCCGGCUGGGCAACCUUCCGAGGGGACCGUCCCCUCGGUUAUGGCGAAUGGGACCCA [A45C A70U]', 'self-cleavage', 0.508),
  ('GGCCGGCAUGGUCCCAGCCUCCUCGCUGGUGCCGGCUGGGCAACAUUCCGAGGGGACCGUCCCCUCGGUAAUGGCGGAUGGGACCCA [C30U A77G]', 'self-cleavage', 0.489),
  ('GGCCGGCAUGGUCCCAGCCUCCUCGCUGGCGCCGGCUGGGCAACAUUCCGAGGGGACCGUCCCCACGGUAAUGGCGAACGGGACCCA [U65A U79C]', 'self-cleavage', 0.467),
  ('GGCCGGCAUGGUCCCAGCCUCCUCGCUGGCGCCGGCUGGGCAACAUUCCGAGGGGACCGUCCCCUGGGUAAUGGCGAAUGGUACCCA [C66G G82U]', 'self-cleavage', 0.485),
  ('GGCCGGCAUGGUCCCAGCCUCCUCGCUGGCGCCGGCUGGGCAACAUUCCGAGGGGACCGUCCCCUCGUUAAUGGCUAAUGGGACCCA [G68U G76U]', 'self-cleavage', 1.09),
  ('GGCCGGCAUGGUGCCAGCCUCCUCGCUGGCGCCGGCUGGGCAACAUUCCGAGGGGACCGUCCCCUCGGUAAUGGCCAAUGGGACCCA [C13G G76C]', 'self-cleavage', 0.217),
  ('GGCCGGCAUGGUCCCAGCCUCCUCGCUGGCGCCGGCUGGGCAACAUUCCGAGCGGACCCUCCCCUCGGUAAUGGCGAAUGGGACCCA [G53C G59C]', 'self-cleavage', 0.958),
  ('GGCCGGCAUGGUCCCAGCCUCCUCGCUGGCGCCGGCUGGGCAACAUUCCGAGGGGACCGUCCCCUCGGUACUGGCGAGUGGGACCCA [A71C A78G]', 'self-cleavage', 0.615),
  ('GGCCGGCAUGGUCCCAGCCUCCUCGCUGGCGCCGGCUGGGCAACAUUCCGAGGGGACCGUCCCCUCAGUAAUGGCGAAUGGGACCCA [G67A]', 'self-cleavage', 0.967),
  ('GGCCGGCAUGGUCCAUGCCUCCUCGCUGGCGCCGGCUGGGCAACAUUCCGAGGGGACCGUCCCCUCGGUAAUGGCGAAUGGGACCCA [C15A A16U]', 'self-cleavage', 0.499),
  ('GGCCGGCAUGGUCCCAGCCUCGUCGCUGGCGCCGGCUGGGCAACAUUCCGAUGGGACCGUCCCCUCGGUAAUGGCGAAUGGGACCCA [C22G G52U]', 'self-cleavage', 0.0314),
  ('GGCCGGCGUGGUCCCAGCCUCCUCGCUGGCGCCGGCUGGGCAACAUUCCGAGGGGACCGUCCCCUCGGUAAUGGCUAAUGGGACCCA [A8G G76U]', 'self-cleavage', 0.831),
  ('GGCCGGCAUGGUCCCAACCUCCUCGCUGGCGCCGGCUGGGCAACAUUCCGAGGGGACCGUCCCCUCGGUAAUGGCCAAUGGGACCCA [G17A G76C]', 'self-cleavage', 0.665),
  ('GGCCGGCAUGGUCCCAGCCUCCUCGCUGGCGCCGGCUGGGCAACAUCCCGAGGGGACCGUCCCCUCGGUAAUGGCGGAUGGGACCCA [U47C A77G]', 'self-cleavage', 0.612),
  ('GGCCGGCAUCGUCCCAGCCUCCUCGCUGCCGCCGGCUGGGCAACAUUCCGAGGGGACCGUCCCCUCGGUAAUGGCGAAUGGGACCCA [G10C G29C]', 'self-cleavage', 0.155),
  ('GGCCGGCAUGGUCCAAGCCUCCUCGCUGGCGCCGGCUGGGCAACAUUCCGAGGGGACCGUCUCCUCGGUAAUGGCGAAUGGGACCCA [C15A C62U]', 'self-cleavage', 0.764),
  ('GGCCGGCAAGGUCCCAGCCUCCUCGCUGGCGCCGGCUGGGCAACAUUCCGAGGGGACCGUCCCAUCGGUAAUGGCGAAUGGGACCCA [U9A C64A]', 'self-cleavage', 1.04),
  ('GGCCGGCAUGGUCCCAGCCUCCUCGCUGGCGCCGGCUGGGCAACAUUCCGAGGGGACCGUCACCUCGGUAAUGGCGAAUGGUACCCA [C62A G82U]', 'self-cleavage', 0.295),
  ('GGCCGGCAUGGUCCCAGCCUCCUCGCUGGCGCCGGCUGGGCAACAUUCCGAGGGGACCGUCCCCUCGGUAAUGGCGAAUGUGACCAA [G81U C86A]', 'self-cleavage', 0.652),
  ('GGCCGGCAUGGUCCCAGCCUCCUCGCUGGCGCCGGCUGGGUAACAUUCCGAGGGGACCGUCCCCUCGGUACUGGCGAAUGGGACCCA [C41U A71C]', 'self-cleavage', 0.644),
  ('GGCCGGCAUGCUCCCUGCCUCCUCGCUGGCGCCGGCUGGGCAACAUUCCGAGGGGACCGUCCCCUCGGUAAUGGCGAAUGGGACCCA [G11C A16U]', 'self-cleavage', 0.434),
  ('GGCCGGCAUGGUCCCAGCCUCCUCGCUGGCGCCGGCUGGGCAACAUUCCCAGGCGACCGUCCCCUCGGUAAUGGCGAAUGGGACCCA [G50C G54C]', 'self-cleavage', 0.32),
  ('GGCCGGCAUGGUCCCAGCCUCCUCGCUGGCGCCGGCUGGGUAACAUUCCGAGGGGACCGUCUCCUCGGUAAUGGCGAAUGGGACCCA [C41U C62U]', 'self-cleavage', 0.92),
  ('GGCCGGCAUGGUCCCAGCCUCCUCGCUUGCGCCGGCUGGUCAACAUUCCGAGGGGACCGUCCCCUCGGUAAUGGCGAAUGGGACCCA [G28U G40U]', 'self-cleavage', 0.0277),
  ('GGCCGGCAUGGUCCCAGCCUCCUCGCUGGCGCCGGCUGGGCAACAUUCAGAGGGGACCGUCCCCUCGGCAAUGGCGAAUGGGACCCA [C49A U69C]', 'self-cleavage', 1.13);
